Source: patent US5686486A

Molecular target: HIV-1 protease (Human immunodeficiency virus type 1 group M subtype B)
Test: biochemical
Conditions: read-out: HIV-1 Protease % Inhib, dose 10.000 uM
value-kind: inhibition at 10 µM (%)
Reply numerically in %, unit not repeated.

{"compound": "O=c1oc2c(c(O)c1C(c1cccc(NS(=O)(=O)c3cccc(S(=O)(=O)N(Cc4ccccc4)Cc4ccccc4)c3)c1)C1CC1)CCCCCC2 (stereo not shown)", "experimental-system": "HIV-1 protease (Human immunodeficiency virus type 1 group M subtype B)", "inhibition at 10 µM / %": 95.2}
{"compound": "O=c1oc2c(c(O)c1C(c1cccc(NS(=O)(=O)c3cccc(S(=O)(=O)N4CCOCC4)c3)c1)C1CC1)CCCCCC2 (stereo not shown)", "experimental-system": "HIV-1 protease (Human immunodeficiency virus type 1 group M subtype B)", "inhibition at 10 µM / %": 107}
{"compound": "CC(C)CC(c1ccccc1)c1c(O)c2ccccc2oc1=O (stereo not shown)", "experimental-system": "HIV-1 protease (Human immunodeficiency virus type 1 group M subtype B)", "inhibition at 10 µM / %": 64.6}

Shift focus to the following entry.
Could you tell me which inhibition at 10 µM is on file for O=c1oc2ccccc2c(O)c1C(Cc1ccccc1)c1ccccc1 (stereo not shown) [Example 13, 3-(1,2-Diphenylethyl)4-hydroxycoumarin] ?
34.7

###

Biological target: HIV-1 protease (Human immunodeficiency virus type 1 group M subtype B)
Test: biochemical
Conditions: read-out: HIV-1 Protease % Inhib, dose 33.000 uM
value-kind: inhibition at 33 µM

Worked examples, 2 molecules total:
{"molecule": "CC(C)(C)C(c1ccccc1)c1c(O)c2ccccc2oc1=O (stereo not shown) [Example 152]", "inhibition at 33 µM": "102%"}
{"molecule": "O=c1oc2c(c(O)c1C(C1CC1)C1CC1)CCCCCC2 [Example 118]", "inhibition at 33 µM": "103%"}

Query: inhibition at 33 µM; subject: CCC(c1ccccc1)c1c(O)c2c(oc1=O)C(CC1CC1)CCC2 (stereo not shown) [Example 124]
88.2%

Entry CC(C)N=C(Nc1cccc(C(c2c(O)c3c(oc2=O)CCCCCC3)C2CC2)c1)NC(C)C (stereo not shown) [Example 120] : reported inhibition at 33 µM = ?
101%

// inhibition at 33 µM lookup, key: O=c1oc2c(c(O)c1C(Cc1ccccc1)Cc1ccccc1)CCCCCC2 [Example 136]
91.6%

GET /values?readout=inhibition at 33 µM&item= O=C(Nc1cccc(C(c2c(O)c3c(oc2=O)CCCCCC3)C2CC2)c1)OCc1ccccc1 (stereo not shown) [Example 119]
96.8%

For CCC(c1ccccc1)c1c(O)c2c(oc1=O)C(Cc1ccccc1)CCCCC2 (stereo not shown) [Example 122] , what is its reported inhibition at 33 µM?
93.2%

Quick check: inhibition at 33 µM of O=c1oc2ccccc2c(O)c1C1CCN(Cc2ccccc2)c2ccccc21 (stereo not shown) [Example 159] ?
84.2%

Returns the measured inhibition at 33 µM for the input molecule. Input: CCC(c1ccccc1)c1c(O)c2c(oc1=O)C(C)CCCCC2 (stereo not shown) [Example 126]
100%

Sample C=CCCC1CCCCc2c1oc(=O)c(C(c1ccccc1)C1CC1)c2O (stereo not shown) [Example 135] — what was its inhibition at 33 µM?
71.2%

###

The entries below come with measured inhibition at 1.56 µM values attached.
Biological target: HIV-1 protease (Human immunodeficiency virus type 1 group M subtype B, UniProt P04585)
Assay: biochemical
Conditions: read-out: HIV-1 Protease % Inhib, dose 1.560 uM
Give just the numeric value; % need not be written.

Quick check: inhibition at 1.56 µM of CC(C)C(c1ccc(Br)cc1)c1c(O)c2ccccc2oc1=O (stereo not shown) [Example 12] ?
17.1

Look at this molecule and give its reported inhibition at 1.56 µM. CCC(c1ccccc1)c1c(O)c2ccc(OC)cc2oc1=O (stereo not shown) [Example 88]
49.9

Tell me the measured inhibition at 1.56 µM of CCCC(c1ccccc1)c1c(O)c2ccccc2oc1=O (stereo not shown) [Example 10, 4-Hydroxy-3-(1-phenylbutyl)-coumarin] , please.
53.6

I would be grateful if you could share the reported inhibition at 1.56 µM for CCCCC(c1ccccc1)c1c(O)c2ccccc2oc1=O (stereo not shown) [Example 11, 4-Hydroxy-3-(1-phenylpentyl)-coumarin] .
58.1

###

Biological target: HIV-1 protease (Human immunodeficiency virus type 1 group M subtype B)
Assay: biochemical
Details: dose 100.000 uM
value-kind: HIV-1 Protease % Inhib (%)
// return numeric value only (unit: %, not printed)

Answered examples (2):
{"compound": "CCC(c1cccc(NC(=O)CN)c1)c1c(O)c2ccccc2oc1=O (stereo not drawn) [Example 46]", "HIV-1 Protease % Inhib (%)": 107}
{"compound": "CCC(c1ccccc1)c1c(O)c2ccc(O)cc2oc1=O (stereo not drawn) [Example 93]", "HIV-1 Protease % Inhib (%)": 91.7}

Now, please, on to the next compound.
What value of HIV-1 Protease % Inhib has been reported for the following compound? CCC(c1cccc(NC(=O)C(NC(=O)OC(C)(C)C)C(C)C)c1)c1c(O)c2ccccc2oc1=O (stereo not drawn) [Example 42]
102.8

###

# maps each entry to its inhibition at 30 µM
Target: HIV-1 protease (Human immunodeficiency virus type 1 group M subtype B, UniProt P04585)
Experiment: biochemical
Settings: read-out: HIV-1 Protease % Inhib, dose 30.000 uM
Give the value in % but do not write % after it.

May I ask what inhibition at 30 µM has been recorded for O=c1oc2c(c(O)c1C(c1cccs1)C1CC1)CCCCCC2 (stereo not shown) ?
113

Requested field: inhibition at 30 µM. Item: CCCCCCCCS(=O)(=O)Nc1cccc(C(c2c(O)c3c(oc2=O)CCCCCC3)C2CC2)c1 (stereo not shown)
105

Which inhibition at 30 µM is reported for this compound? O=c1oc2c(c(O)c1C(c1cccc(NS(=O)(=O)c3cccc([N+](=O)[O-])c3)c1)C1CC1)CCCCCC2 (stereo not shown)
105

###

Target: HIV-1 protease (Human immunodeficiency virus type 1 group M subtype B, UniProt P04585)
Experiment: biochemical
Conditions: dose 3.300 uM
value-kind: HIV-1 Protease % Inhib (%)
Enter your answer as a number in %; do not include the unit.

May I ask what HIV-1 Protease % Inhib has been recorded for COCCC1CCCCc2c1oc(=O)c(C(c1ccccc1)C1CC1)c2O (stereo not shown) ?
102.84

###

# Ki per entry
Molecular target: HIV-1 protease (Human immunodeficiency virus type 1 group M subtype B)
Experiment: biochemical
Details: read-out: HIV-1 FITC KI
# value in nM; strip the unit string

{"compound": "CC(C)(C)c1ccc(S(=O)(=O)Nc2cccc(C(c3c(O)c4c(oc3=O)CCCCCC4)C3CC3)c2)cc1 (centres unmarked) [Example 265]", "Ki [nM]": 31.5}
{"compound": "CCC(c1ccccc1)c1c(O)c2c(oc1=O)C(Cc1ccccc1)CCCCC2 (centres unmarked) [Example 122]", "Ki [nM]": 175}
{"compound": "O=c1oc2c(c(O)c1C(c1cccc(NS(=O)(=O)c3ccc(OC(F)(F)F)cc3)c1)C1CC1)CCCCCC2 (centres unmarked) [Example 312]", "Ki [nM]": 4}
{"compound": "O=c1oc2c(c(O)c1C(c1ccccc1)C1CC1)CCCCCC2CC1CCOC1 (centres unmarked) [Example 133]", "Ki [nM]": 12}
{"compound": "O=c1oc2c(c(O)c1C(c1ccc(CCO)s1)C1CC1)CCCCCC2 (centres unmarked) [Example 385]", "Ki [nM]": 12.4}

Item O=c1oc2c(c(O)c1C(c1cccc(NS(=O)(=O)c3ccc(Cl)s3)c1)C1CC1)CCCCCC2 (centres unmarked) [Example 301] has what recorded Ki?
4.8

May I ask what Ki has been recorded for CCC(c1ccccc1)c1c(O)c2c(oc1=O)C(C)CCCCC2 (centres unmarked) [Example 126] ?
331

Which Ki is reported for this compound? Cc1c(Cl)cccc1S(=O)(=O)Nc1cccc(C(c2c(O)c3c(oc2=O)CCCCCC3)C2CC2)c1 (centres unmarked) [Example 311]
6.33

###

Entries and their inhibition at 30 µM values follow.
Molecular target: HIV-1 protease (Human immunodeficiency virus type 1 group M subtype B, UniProt P04585)
Test: biochemical
Details: read-out: HIV-1 Protease % Inhib, dose 30.000 uM
Dear colleague, please return just the value in %, with no unit written.

Solved cases (10 shown):
{"compound": "O=c1oc2c(c(O)c1C(c1cccc(NS(=O)(=O)c3ccc(-c4ccon4)s3)c1)C1CC1)CCCCCC2 (stereo not shown) [Example 347]", "experimental-system": "HIV-1 protease (Human immunodeficiency virus type 1 group M subtype B, UniProt P04585)", "unit-abbrev": "%", "inhibition at 30 µM": 103}
{"compound": "O=c1oc2c(c(O)c1C(c1ccccc1)C1CC1)CCCCCC2CC1CCOC1 (stereo not shown) [Example 133]", "experimental-system": "HIV-1 protease (Human immunodeficiency virus type 1 group M subtype B, UniProt P04585)", "unit-abbrev": "%", "inhibition at 30 µM": 99.5}
{"compound": "CCCC(c1cccc(NS(=O)(=O)c2ccc(F)cc2)c1)c1c(O)c2c(oc1=O)CCCCCC2 (stereo not shown) [Example 430]", "experimental-system": "HIV-1 protease (Human immunodeficiency virus type 1 group M subtype B, UniProt P04585)", "unit-abbrev": "%", "inhibition at 30 µM": 97.3}
{"compound": "CC(C)(C)c1ccc(S(=O)(=O)Nc2cccc(C(c3c(O)c4c(oc3=O)CCCCCC4)C3CC3)c2)cc1 (stereo not shown) [Example 265]", "experimental-system": "HIV-1 protease (Human immunodeficiency virus type 1 group M subtype B, UniProt P04585)", "unit-abbrev": "%", "inhibition at 30 µM": 98.3}
{"compound": "CC(C)CC(c1cccc(NS(=O)(=O)c2cccnc2)c1)c1c(O)c2c(oc1=O)CCCCCC2 (stereo not shown) [Example 429]", "experimental-system": "HIV-1 protease (Human immunodeficiency virus type 1 group M subtype B, UniProt P04585)", "unit-abbrev": "%", "inhibition at 30 µM": 108}
{"compound": "O=c1oc2c(c(O)c1C(c1cccc(NS(=O)(=O)c3cccc(O)c3)c1)C1CC1)CCCCCC2 (stereo not shown) [Example 405]", "experimental-system": "HIV-1 protease (Human immunodeficiency virus type 1 group M subtype B, UniProt P04585)", "unit-abbrev": "%", "inhibition at 30 µM": 77.2}
{"compound": "CCC(c1cccc(NC(=O)CCNC(=O)OC(C)(C)C)c1)c1c(O)c2c(oc1=O)CCCCCC2 (stereo not shown) [Example 219]", "experimental-system": "HIV-1 protease (Human immunodeficiency virus type 1 group M subtype B, UniProt P04585)", "unit-abbrev": "%", "inhibition at 30 µM": 97.3}
{"compound": "O=c1oc2c(c(O)c1C(c1cccc(NS(=O)(=O)c3cc(S(=O)(=O)c4ccccc4)cs3)c1)C1CC1)CCCCCC2 (stereo not shown) [Example 298]", "experimental-system": "HIV-1 protease (Human immunodeficiency virus type 1 group M subtype B, UniProt P04585)", "unit-abbrev": "%", "inhibition at 30 µM": 100}
{"compound": "CCCOc1ccc2c(O)c(C(CC)c3ccccc3)c(=O)oc2c1 (stereo not shown) [Example 169]", "experimental-system": "HIV-1 protease (Human immunodeficiency virus type 1 group M subtype B, UniProt P04585)", "unit-abbrev": "%", "inhibition at 30 µM": 99.9}
{"compound": "O=c1oc2c(c(O)c1C(c1ccccc1)C1CC1)CCCCCC2CC1CCCO1 (single isomer, unassigned) [Example 170]", "experimental-system": "HIV-1 protease (Human immunodeficiency virus type 1 group M subtype B, UniProt P04585)", "unit-abbrev": "%", "inhibition at 30 µM": 111}

Looking for the measured inhibition at 30 µM of O=c1oc2c(c(O)c1C(c1cccc(NS(=O)(=O)c3cccc4nonc34)c1)C1CC1)CCCCCC2 (stereo not shown) [Example 290] , can you help?
114

What measured inhibition at 30 µM goes with CC(C)C(c1cccc(NS(=O)(=O)c2cccnc2)c1)c1c(O)c2c(oc1=O)CCCCCC2 (stereo not shown) [Example 417] ?
97.3

So what's the measured inhibition at 30 µM for this one? CC(CO)C1CCCCCc2c1oc(=O)c(C(c1ccccc1)C1CC1)c2O (stereo not shown) [Example 161]
111

Name the recorded inhibition at 30 µM for O=c1oc2c(c(O)c1C(c1cccc(NS(=O)(=O)c3ccc(F)cc3)c1)C1CC1)CCCCCC2 (stereo not shown) [Example 268] .
101

For CCNC(=O)Nc1cccc(C(c2c(O)c3c(oc2=O)CCCCCC3)C2CC2)c1 (stereo not shown) [Example 223] , what is its reported inhibition at 30 µM?
101

For the compound shown here, CC(O)CC1CCCCCc2c1oc(=O)c(C(c1ccccc1)C1CC1)c2O (stereo not shown) [Example 162] , give the reported inhibition at 30 µM.
109
